Reference source: paper PMC12820563

Parameter binding signal: see the listing below.
- System tested: MBP-FoxP3dN (Mus musculus, UniProt Q99JB6 188-423)
- Sequence: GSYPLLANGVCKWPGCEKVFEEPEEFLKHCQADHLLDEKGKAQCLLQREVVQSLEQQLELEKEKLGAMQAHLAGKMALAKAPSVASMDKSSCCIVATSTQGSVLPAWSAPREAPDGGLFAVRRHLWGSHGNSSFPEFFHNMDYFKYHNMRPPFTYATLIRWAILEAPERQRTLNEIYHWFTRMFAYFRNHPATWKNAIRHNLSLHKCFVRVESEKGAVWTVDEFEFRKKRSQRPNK
- Measurement notes: PD-seq (MBP pull-down with sequencing); 20 mM Tris-HCl pH 7.5, 100 mM NaCl, 1.5 mM MgCl2, 0.4 uM protein, 0.1 uM dsDNA library, 30 min, room temperature, amylose pull-down; high values mean tight binding
- Conditions: protein: recombinant; tags: His6-MBP; chain copies: 2; dsDNA, one strand shown
In all, about 16,000 sequences were measured (“rpm ratio (pull-down/input)”: median about 0.5, highest 2% from about 5.5 on). The list comes from a sample in which the highest values are over-represented; it also holds close analogues and randomly drawn sequences.

Seq | System tested | binding signal
GATGATTGTTCTCCCAGCTGATGAATTGGGGATTTCGAGTAAACAAATTTTCCTAATCTTTCTGTTCAAGCGCCATCTAC | MBP-FoxP3dN (Mus musculus, UniProt Q99JB6 188-423) | 0.404 RPM ratio (pull-down/input)
GATGATTGTTCTCCCAGCTGATGAATTGTTGTGATCGAGTAAACAAATTTTCCTAATCTTTCTGTTCAAGCGCCATCTAC | MBP-FoxP3dN (Mus musculus, UniProt Q99JB6 188-423) | 6.31 RPM ratio (pull-down/input)
GATGATTGTTCTCCCAGCTGATGAATTCTGTTGATCGAGTAAACAAATTTTCCTAATCTTTCTGTTCAAGCGCCATCTAC | MBP-FoxP3dN (Mus musculus, UniProt Q99JB6 188-423) | 6.26 RPM ratio (pull-down/input)
GATGATTGTTCTCCCAGCTGATGAATTGAATTGATCGAGTAAACAAATTTTCCTAATCTTTCTGTTCAAGCGCCATCTAC | MBP-FoxP3dN (Mus musculus, UniProt Q99JB6 188-423) | 0.917 RPM ratio (pull-down/input)
GATGATTGTTCTCCCAGCTGATGAATTTGATGAGTCGAGTAAACAAATTTTCCTAATCTTTCTGTTCAAGCGCCATCTAC | MBP-FoxP3dN (Mus musculus, UniProt Q99JB6 188-423) | 0.974 RPM ratio (pull-down/input)
GATGATTGTTCTCCCAGCTGATGAATTCTTGAATTCGAGTAAACAAATTTTCCTAATCTTTCTGTTCAAGCGCCATCTAC | MBP-FoxP3dN (Mus musculus, UniProt Q99JB6 188-423) | 0.493 RPM ratio (pull-down/input)

For the next question, use this sequence.
## Task Given `GATGATTGTTCTCCCAGCTGATGAATTACAACTCTCGAGTAAACAAATTTTCCTAATCTTTCTGTTCAAGCGCCATCTAC` , state its recorded binding signal.
## Result 0.948 RPM ratio (pull-down/input)

====

- System tested: MBP-FoxP3dN (Mus musculus, UniProt Q99JB6 188-423)
- Sequence: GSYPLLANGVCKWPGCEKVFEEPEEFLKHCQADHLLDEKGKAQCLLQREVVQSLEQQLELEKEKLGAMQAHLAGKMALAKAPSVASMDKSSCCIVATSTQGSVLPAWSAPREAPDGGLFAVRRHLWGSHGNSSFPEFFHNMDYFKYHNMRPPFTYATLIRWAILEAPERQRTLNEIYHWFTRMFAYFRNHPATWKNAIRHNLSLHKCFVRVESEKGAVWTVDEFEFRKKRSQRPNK
- Measurement notes: PD-seq (MBP pull-down with sequencing); 20 mM Tris-HCl pH 7.5, 100 mM NaCl, 1.5 mM MgCl2, 0.4 uM protein, 0.1 uM dsDNA library, 30 min, room temperature, amylose pull-down; high values mean tight binding
- Conditions: protein: recombinant; tags: His6-MBP; chain copies: 2; dsDNA, one strand shown
Over roughly 16,000 sequences, “rpm ratio (pull-down/input)” has its median near 0.5; the highest 2% begin near 5.5. The full list was thinned out, with the highest values kept by preference.
Parameter binding signal: see the listing below.

Take a look at these entries with their results.
Seq | binding signal
GATGATTGTTCTCCCAGCTGATGAATTGAGCGCCTCGAGTAAACAAATTTTCCTAATCTTTCTGTTCAAGCGCCATCTAC | 1.18 RPM ratio (pull-down/input)
GATGATTGTTCTCCCAGCTGATGAATTAGCTCGCTCGAGTAAACAAATTTTCCTAATCTTTCTGTTCAAGCGCCATCTAC | 0.272 RPM ratio (pull-down/input)

## Task Requested read-out binding signal, target or system MBP-FoxP3dN (Mus musculus, UniProt Q99JB6 188-423), entry `GATGATTGTTCTCCCAGCTGATGAATTAGAGATGTCGAGTAAACAAATTTTCCTAATCTTTCTGTTCAAGCGCCATCTAC`
## Result 0.424 RPM ratio (pull-down/input)

## Task Requested read-out binding signal, target or system MBP-FoxP3dN (Mus musculus, UniProt Q99JB6 188-423), entry `GATGATTGTTCTCCCAGCTGATGAATTATTAGCGTCGAGTAAACAAATTTTCCTAATCTTTCTGTTCAAGCGCCATCTAC`
## Result 0.786 RPM ratio (pull-down/input)

## Task Requested read-out binding signal, target or system MBP-FoxP3dN (Mus musculus, UniProt Q99JB6 188-423), entry `GATGATTGTTCTCCCAGCTGATGAATTAGATCATTCGAGTAAACAAATTTTCCTAATCTTTCTGTTCAAGCGCCATCTAC`
## Result 0.534 RPM ratio (pull-down/input)

## Task Requested read-out binding signal, target or system MBP-FoxP3dN (Mus musculus, UniProt Q99JB6 188-423), entry `GATGATTGTTCTCCCAGCTGATGAATTTCAGCAATCGAGTAAACAAATTTTCCTAATCTTTCTGTTCAAGCGCCATCTAC`
## Result 1.94 RPM ratio (pull-down/input)

## Task Requested read-out binding signal, target or system MBP-FoxP3dN (Mus musculus, UniProt Q99JB6 188-423), entry `GATGATTGTTCTCCCAGCTGATGAATTGCTGCACTCGAGTAAACAAATTTTCCTAATCTTTCTGTTCAAGCGCCATCTAC`
## Result 1.03 RPM ratio (pull-down/input)
